Sourced from ChEMBL document CHEMBL4017512

# Protocol text: Apparent permeability from basolateral to apical side in human Caco2 cells
# Format: ADME, cell-based
# Conditions: Caco-2
Listed here are molecules together with their documented Papp B→A.
Measured parameter: Papp B→A (×10⁻⁶ cm/s)

>  <Smiles representation>
CC[C@]1(NC(=O)c2ccc3c(c2)CCCC3)C[C@H]2CN(CCc3c([nH]c4ccccc34)[C@@](C(=O)OC)(c3cc4c(cc3OC)N(C)[C@H]3[C@@](O)(C(=O)OC)[C@H](OC(C)=O)[C@]5(CC)C=CCN6CC[C@]43[C@@H]65)C2)C1

>  <Unit info>
×10⁻⁶ cm/s

>  <Endpoint value>
2

$$$$
>  <Smiles representation>
CC[C@]1(O)C[C@@H]2CN(CCc3c([nH]c4ccccc34)[C@@](C(=O)OC)(c3cc4c(cc3OC)N(C)[C@H]3[C@@](O)(C(=O)OC)[C@H](OC(C)=O)[C@]5(CC)C=CCN6CC[C@]43[C@@H]65)C2)C1

>  <Unit info>
×10⁻⁶ cm/s

>  <Endpoint value>
38.2

$$$$
